Kindly supply the reported pEC50 values for the records listed here.
- Test system: HCV chimeric replicon with NS5A of genotype 3a (NC00982)
- PROCEDURE DETAILS: Cell-based HCV replicon assay (TaqMan), chimeric replicon genotype 3a (NC00982)
- CONDITIONS: Hepatitis C virus, 72 h, read-out: HCV replicon EC50 3a (NC00982), chimeric replicon 3a (NC00982); replicon RNA by TaqMan, day 3
Reminder that pEC50 is minus the log10 of a molar concentration.

The recorded pEC50 with HCV chimeric replicon with NS5A of genotype 3a (NC00982) for `COC(=O)N[C@H](C(=O)N1C[Si](C)(C)C[C@H]1c1ncc(-c2ccc(-c3ccc4c(ccc5nc([C@@H]6CC(F)(F)CN6C(=O)[C@@H](NC(=O)OC)C(C)C)[nH]c54)c3)nc2)[nH]1)C(C)C` was 9.82

The recorded pEC50 with HCV chimeric replicon with NS5A of genotype 3a (NC00982) for COC(=O)NC(C(=O)N1CCCC1c1ncc(-c2ccc(-c3ccc4c(ccc5nc([C@@H]6C[Si](C)(C)CN6C(=O)C(NC(=O)OC)C(C)C)[nH]c54)c3)cc2)[nH]1)C(C)C (stereo partly shown) was 9.59

The recorded pEC50 with HCV chimeric replicon with NS5A of genotype 3a (NC00982) for COC(=O)NC(C(=O)N1C2CCC(C2)C1c1ncc(-c2ccc(-c3ccc4c(ccc5nc([C@@H]6C[Si](C)(C)CN6C(=O)C(NC(=O)OC)C(C)C)[nH]c54)c3)cc2)[nH]1)C(C)C (stereo partly shown) was 9.00

The recorded pEC50 with HCV chimeric replicon with NS5A of genotype 3a (NC00982) for `COC(=O)N[C@H](C(=O)N1C[Si]2(CCCC2)C[C@H]1c1ncc(-c2ccc(-c3ccc4c(ccc5nc([C@@H]6CC(F)(F)CN6C(=O)[C@@H](NC(=O)OC)C(C)C)[nH]c54)c3)cc2)[nH]1)C(C)C` was 9.56

The recorded pEC50 with HCV chimeric replicon with NS5A of genotype 3a (NC00982) for `COC(=O)N[C@H](C(=O)N1CC[C@H](C)[C@H]1c1ncc(-c2ccc(-c3ccc4c(ccc5nc([C@@H]6C[Si](C)(C)CN6C(=O)[C@@H](NC(=O)OC)C(C)C)[nH]c54)c3)cc2)[nH]1)C(C)C` was 10.00

The recorded pEC50 with HCV chimeric replicon with NS5A of genotype 3a (NC00982) for `COC(=O)N[C@H](C(=O)N1C[Si](C)(C)C[C@H]1c1nc2ccc3cc(-c4ccc(-c5cnc([C@@H]6[C@@H]7C[C@@H]([C@@H](F)[C@H]7F)N6C(=O)[C@@H](NC(=O)OC)C(C)C)[nH]5)cc4)ccc3c2[nH]1)C(C)C` was 8.13

The recorded pEC50 with HCV chimeric replicon with NS5A of genotype 3a (NC00982) for `COC(=O)N[C@H](C(=O)N1C[Si](C)(C)C[C@H]1c1ncc(-c2ccc(-c3ccc4c(ccc5nc([C@@H]6CC(F)(F)CN6C(=O)[C@@H](NC(=O)OC)C(C)C)[nH]c54)c3)cc2)[nH]1)C(C)C` was 9.74

The recorded pEC50 with HCV chimeric replicon with NS5A of genotype 3a (NC00982) for `COC(=O)N[C@H](C(=O)N1C[Si](C)(C)C[C@H]1c1ncc(-c2ccc(-c3ccc4c(ccc5nc([C@@H]6CCCN6C(=O)[C@@H](NC(=O)OC)C(C)C)[nH]c54)c3)cc2OCCO)[nH]1)C(C)C` was 7.51

The recorded pEC50 with HCV chimeric replicon with NS5A of genotype 3a (NC00982) for `COC(=O)N[C@H](C(=O)N1C[Si](C)(C)C[C@H]1c1ncc(-c2ccc(-c3ccc4c(ccc5nc([C@@H]6CC(F)(F)CN6C(=O)[C@@H](NC(=O)OC)C(C)C)[nH]c54)c3)cn2)[nH]1)C(C)C` was 8.62

The recorded pEC50 with HCV chimeric replicon with NS5A of genotype 3a (NC00982) for COC(=O)NC(C(=O)N1C[Si](C)(C)CC1c1ncc(-c2ccc(-c3ccc4c(ccc5nc([C@@H]6CCCN6C(=O)C(NC(=O)OC)C(C)C)[nH]c54)c3)s2)[nH]1)C(C)C (stereo partly shown) was 9.59

The recorded pEC50 with HCV chimeric replicon with NS5A of genotype 3a (NC00982) for `COC(=O)N[C@H](C(=O)N1C[Si](C)(C)C[C@H]1c1ncc(-c2ccc(-c3ccc4c(ccc5nc([C@@H]6CC(F)(F)CN6C(=O)[C@@H](NC(=O)OC)C(C)C)[nH]c54)c3)c(F)c2)[nH]1)C(C)C` was 9.10

The recorded pEC50 with HCV chimeric replicon with NS5A of genotype 3a (NC00982) for COC(=O)N[C@H](C(=O)N1C[Si](C)(C)C[C@H]1c1ncc(-c2ccc(-c3ccc4c(ccc5nc([C@@H]6CC(F)CN6C(=O)[C@@H](NC(=O)OC)C(C)C)[nH]c54)c3)cc2)[nH]1)C(C)C (stereo partly shown) was 10.05
